This collection of values is drawn from patent US11753410B2.

Emax values for the molecules below.
- experimentalSystem: ligand binding domain of human FXR (Homo sapiens)
- Construct: purchased Thermofisher (LanthaScreen) PV4833
- Sequence (Q96RI1 262-486 limits assumed): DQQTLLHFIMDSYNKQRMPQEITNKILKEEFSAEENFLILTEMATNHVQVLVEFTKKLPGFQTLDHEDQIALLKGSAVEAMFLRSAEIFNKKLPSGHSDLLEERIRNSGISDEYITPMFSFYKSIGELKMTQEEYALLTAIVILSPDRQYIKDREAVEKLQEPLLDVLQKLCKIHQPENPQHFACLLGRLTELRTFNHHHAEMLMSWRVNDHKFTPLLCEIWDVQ
- protocol: biochemical
- condition: extent of activation relative to GW4064; read-out: Ligand Binding % Efficacy

molecule	experimentalSystem	Emax [%]
O=C(O)c1ccc(N2C[C@@H]3C[C@H]2C[C@H]3OCc2c(C3CC3)nnn2-c2c(Cl)cccc2Cl)cc1	ligand binding domain of human FXR (Homo sapiens)	140
O=C(O)c1ccc(N2C[C@@H]3C[C@H]2C[C@H]3OCc2c(C3CC3)cnn2-c2c(Cl)cccc2Cl)cn1	ligand binding domain of human FXR (Homo sapiens)	119
O=C(O)c1ccc(N2C[C@@H]3C[C@H]2C[C@H]3OCc2c(-c3c(Cl)cccc3Cl)nnn2C2CC2)cc1	ligand binding domain of human FXR (Homo sapiens)	155
O=C(O)c1cc(C2CCOCC2)c2nc(N3C[C@@H]4C[C@H]3C[C@H]4OCc3c(-c4c(Cl)cccc4Cl)nnn3C3CC3)sc2c1	ligand binding domain of human FXR (Homo sapiens)	148
O=C(O)c1cc(OC2CC2)c2nc(N3C[C@@H]4C[C@H]3C[C@H]4OCc3c(-c4c(Cl)cccc4Cl)nnn3C3CC3)sc2c1	ligand binding domain of human FXR (Homo sapiens)	172
O=C(O)c1cc([C@@H]2CCOC2)c2nc(N3C[C@@H]4C[C@H]3C[C@H]4OCc3c(-c4c(Cl)cccc4Cl)nnn3C3CC3)sc2c1 (single isomer, unassigned)	ligand binding domain of human FXR (Homo sapiens)	140
O=C(O)c1ccc(N2C[C@@H]3C[C@H]2C[C@H]3OCc2c(C3CC3)cnn2-c2c(Cl)cccc2Cl)nc1	ligand binding domain of human FXR (Homo sapiens)	132
